Data credit: ChEMBL document CHEMBL1144434

# TGT: Caspase-8 (Homo sapiens) (UniProt Q14790)
# Sequence (Q14790 217-374 limits assumed): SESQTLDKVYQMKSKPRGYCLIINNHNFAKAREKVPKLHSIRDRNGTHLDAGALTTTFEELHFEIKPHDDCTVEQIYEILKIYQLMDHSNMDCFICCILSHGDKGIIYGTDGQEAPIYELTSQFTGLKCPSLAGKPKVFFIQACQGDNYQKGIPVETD
# Sequence (Q14790 385-479 limits assumed): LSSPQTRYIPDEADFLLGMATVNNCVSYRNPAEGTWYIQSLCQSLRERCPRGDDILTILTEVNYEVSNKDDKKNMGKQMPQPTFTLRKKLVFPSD
# EXPERIMENTAL_DETAILS: Binding affinity against Caspase-8
MEASUREMENT_NAME: k3/ki

1. CC(C)[C@H](NC(=O)COc1cccc2ccccc12)C(=O)N[C@@H](CC(=O)O)C(=O)CSc1nc(-c2ccccc2)c(-c2ccccc2)o1 :: 218 1/m/s
2. CC(C)[C@H](NC(=O)COc1cccc2ccccc12)C(=O)N[C@@H](CC(=O)O)C(=O)COc1ccccn1 :: 8 1/m/s
3. CC(C)[C@H](NC(=O)COc1cccc2ccccc12)C(=O)N[C@@H](CC(=O)O)C(=O)CSc1nncn1C :: 293 1/m/s
4. CC(C)[C@H](NC(=O)COc1cccc2ccccc12)C(=O)N[C@@H](CC(=O)O)C(=O)COc1ccncn1 :: 0 1/m/s
5. CC(C)[C@H](NC(=O)COc1cccc2ccccc12)C(=O)N[C@@H](CC(=O)O)C(=O)COc1nccc(C(F)(F)F)n1 :: 0 1/m/s
6. CC(C)[C@H](NC(=O)COc1cccc2ccccc12)C(=O)N[C@@H](CC(=O)O)C(=O)COc1ccnc(C(F)(F)F)n1 :: 3200 1/m/s

Using the record for "CC(C)[C@H](NC(=O)COc1cccc2ccccc12)C(=O)N[C@@H](CC(=O)O)C(=O)COc1cc(C(F)(F)F)nn1-c1ccccc1" , report its k3/ki.
2270 1/m/s

Using the record for "CC(C)[C@H](NC(=O)COc1cccc2ccccc12)C(=O)N[C@@H](CC(=O)O)C(=O)COc1cncc2ccccc12" , report its k3/ki.
0 1/m/s

###

# Test system: Jurkat
# EXPERIMENTAL_DETAILS: Inhibitory concentration for cellular activity in jurkat assay
# Format: functional, cell-based
# CONDITION_DESCRIPTION: Homo sapiens
pIC50: −log10 of the molar value.
MEASUREMENT_NAME: pIC50

[A] CC(C)[C@H](NC(=O)COc1cccc2ccccc12)C(=O)N[C@@H](CC(=O)O)C(=O)CSc1nc(-c2ccccc2)no1
[B] CC(C)[C@H](NC(=O)COc1cccc2ccccc12)C(=O)N[C@@H](CC(=O)O)C(=O)COc1cc(C(F)(F)F)n(C)n1
[C] CC(C)[C@H](NC(=O)COc1cccc2ccccc12)C(=O)N[C@@H](CC(=O)O)C(=O)COc1cc(C(F)(F)F)nn1-c1ccccc1
Order the 3 compounds from highest to lowest pIC50. Order the labels as requested and give them as your answer.
C, B, A
(C: 4.55, B: 4.34, A: 3.99)

###

k3/ki values by entry
# TGT: UniProtKB P42574
# Sequence (P42574 29-175 limits assumed): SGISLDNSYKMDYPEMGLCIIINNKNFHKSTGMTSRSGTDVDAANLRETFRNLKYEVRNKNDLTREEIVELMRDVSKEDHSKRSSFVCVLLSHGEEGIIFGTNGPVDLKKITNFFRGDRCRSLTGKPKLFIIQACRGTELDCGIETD
# Sequence (P42574 176-277 limits assumed): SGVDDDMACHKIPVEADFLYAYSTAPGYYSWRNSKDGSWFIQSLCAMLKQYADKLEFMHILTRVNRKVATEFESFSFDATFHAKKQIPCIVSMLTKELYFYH
# EXPERIMENTAL_DETAILS: Binding affinity against Caspase-3

// known answers, use as guide
1. CC(C)[C@H](NC(=O)COc1cccc2ccccc12)C(=O)N[C@@H](CC(=O)O)C(=O)COc1ccnc(C(F)(F)F)n1 :: 114000 1/m/s
2. CC(C)[C@H](NC(=O)COc1cccc2ccccc12)C(=O)N[C@@H](CC(=O)O)C(=O)COc1nncc(Cl)c1Cl :: 1760 1/m/s
3. Cc1cc(OCC(=O)[C@H](CC(=O)O)NC(=O)[C@@H](NC(=O)COc2cccc3ccccc23)C(C)C)nc(C)n1 :: 7480 1/m/s
4. CC(C)[C@H](NC(=O)COc1cccc2ccccc12)C(=O)N[C@@H](CC(=O)O)C(=O)COn1nnc2ccccc21 :: 121000 1/m/s

Using the record for "CC(C)[C@H](NC(=O)COc1cccc2ccccc12)C(=O)N[C@@H](CC(=O)O)C(=O)COc1ccc2ccccc2n1" , report its k3/ki.
979 1/m/s

Using the record for "CC(C)[C@H](NC(=O)COc1cccc2ccccc12)C(=O)N[C@@H](CC(=O)O)C(=O)COc1cncc2ccccc12" , report its k3/ki.
0 1/m/s

Using the record for "CC(C)[C@H](NC(=O)COc1cccc2ccccc12)C(=O)N[C@@H](CC(=O)O)C(=O)CSc1nc2ccccc2[nH]1" , report its k3/ki.
1770 1/m/s
